The reported numbers originate from paper PMC4336329.

experimental.system: human ether-à-go-go-related gene (hERG) potassium channel (human)
Sequence (Q12809 whole entry, looked up): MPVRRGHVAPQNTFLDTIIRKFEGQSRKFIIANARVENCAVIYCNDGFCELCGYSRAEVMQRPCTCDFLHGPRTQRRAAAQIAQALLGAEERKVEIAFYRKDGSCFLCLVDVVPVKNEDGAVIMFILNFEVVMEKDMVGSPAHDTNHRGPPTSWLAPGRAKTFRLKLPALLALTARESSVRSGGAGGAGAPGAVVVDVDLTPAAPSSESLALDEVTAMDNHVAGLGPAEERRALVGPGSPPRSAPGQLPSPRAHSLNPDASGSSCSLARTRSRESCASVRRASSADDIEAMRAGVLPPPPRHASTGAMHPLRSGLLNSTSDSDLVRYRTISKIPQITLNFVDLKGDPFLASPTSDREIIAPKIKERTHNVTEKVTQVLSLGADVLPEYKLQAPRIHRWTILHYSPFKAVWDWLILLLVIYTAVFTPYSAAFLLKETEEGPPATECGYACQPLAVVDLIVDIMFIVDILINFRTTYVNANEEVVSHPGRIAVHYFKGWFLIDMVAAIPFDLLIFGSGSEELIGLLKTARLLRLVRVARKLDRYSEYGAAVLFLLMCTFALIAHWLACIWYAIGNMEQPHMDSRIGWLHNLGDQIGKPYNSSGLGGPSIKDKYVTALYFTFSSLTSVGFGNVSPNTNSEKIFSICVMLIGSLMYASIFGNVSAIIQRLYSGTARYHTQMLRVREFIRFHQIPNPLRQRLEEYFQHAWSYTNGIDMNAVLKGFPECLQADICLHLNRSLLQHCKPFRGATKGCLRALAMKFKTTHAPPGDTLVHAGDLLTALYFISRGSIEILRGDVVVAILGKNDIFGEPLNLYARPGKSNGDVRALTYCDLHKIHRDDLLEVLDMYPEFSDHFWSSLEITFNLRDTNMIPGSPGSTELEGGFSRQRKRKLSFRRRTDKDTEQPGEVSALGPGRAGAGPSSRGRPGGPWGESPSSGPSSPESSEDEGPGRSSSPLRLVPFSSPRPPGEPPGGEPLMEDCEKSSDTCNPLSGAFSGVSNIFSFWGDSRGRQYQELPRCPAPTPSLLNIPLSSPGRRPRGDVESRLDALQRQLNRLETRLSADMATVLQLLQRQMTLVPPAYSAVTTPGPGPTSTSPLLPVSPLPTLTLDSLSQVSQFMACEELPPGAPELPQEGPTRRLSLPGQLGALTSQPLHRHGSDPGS
protocol.details: primary screen, population patch clamp on CHO cells stably expressing hERG; higher = less effect of the substance
About 2,200 (0.71%) of roughly 310,000 compounds showed an effect of 50% or more. The effect is printed as a negative number. This excerpt belongs to a sample that is enriched for strong results.
hERG current change (%, negative = inhibition) at 1uM by entry:
observation.type: hERG current change (%, negative = inhibition) at 1uM (%)

# compound, value.reported
rows = [
    ("CC(C)C(C(=O)C=[N+]=[N-])N1C(=O)c2ccccc2C1=O (centres unmarked)", 11.2),
    ("CNCCOc1nc(N2CCOCC2)nc(C)c1[N+](=O)[O-]", 10.1),
    ("CNC(=O)NC(=O)C(C)N1CCN(C/C=C/c2ccccc2)CC1 (centres unmarked)", -32.1),
    ("O=C(COc1ccccc1)NC1CCN(Cc2ccccc2)CC1", -8.39),
    ("Cl.O=C(COc1ccccc1F)NC1CCN(Cc2ccccc2)CC1", -3.6),
    ("CCS(=O)(=O)N1Cc2ccccc2CC1C(=O)Nc1ncc(C)s1 (centres unmarked)", 7.83),
    ("COc1cc(CN(C)CC2CCCN(CCc3cccc(C(F)(F)F)c3)C2)ccc1O (centres unmarked)", 2.96),
    ("O=C1C2CCCN2C(=O)N1CCCCN1CCN(c2ccc(F)cc2)CC1 (centres unmarked)", -10),
    ("Cl.O=C1C2C3C=CC(C4CC34)C2C(=O)N1CCCCN1CCN(c2ccc(F)cc2)CC1 (centres unmarked)", -69.2),
    ("COc1ccccc1NC(=S)N1CCN(C/C=C/c2ccccc2)CC1", 7.29),
    ("O=C(COc1ccc(Br)cc1F)NC1CCN(Cc2ccccc2)CC1", -64.8),
    ("O=C(NC1CCN(Cc2ccccc2)CC1)C1CCN(S(=O)(=O)c2ccc(Cl)cc2)CC1", -16.9),
    ("CCC(=O)Nc1ccc(C(=O)n2nc(C)cc2C)cc1", 1.88),
    ("COc1ccc(N(CC(=O)NCc2ccc(C)cc2)S(=O)(=O)c2c(C)[nH]c(=O)[nH]c2=O)cc1", 16),
]
